Where do the numbers come from? From patent US5690904A.

# experimental_details: Biodistribution of 99mTc labelled complexes in rats (Tc brain bioassay, Example 64, Table I)
# Format: in vivo, Female Sprague-Dawley rats
# applied_conditions: rat, i.v. tail vein, 30 min post injection
Record form. Attribute: Brain:blood. Fill in for each entry.
One number for each entry.

Use these answered entries as a reference point.
- compound: "CCC[SH]1c2ccccc2[N]2CC[N]3C(=O)C(C)(C)[S][Tc]321=[O] (centres unmarked)"
  observed_value: 1.23
- compound: "C[SH]1c2ccccc2[N]2CC[N]3C(=O)C(C)(C)[S][Tc]321=[O] (centres unmarked)"
  observed_value: 1.13
- compound: "CC[SH]1C(C)(C)C(=O)[N]2CC[N]3c4ccccc4[S][Tc]231=[O] (centres unmarked)"
  observed_value: 1.36

For every item in the list below, what is its measured Brain:blood?
1. CC1(C)C(=O)[N]2CC[N]3c4ccccc4[S][Tc]23(=[O])[SH]1CCCN (centres unmarked)
2. CC1(C)C(=O)[N]2CC[N]3c4ccccc4[S][Tc]23(=[O])[SH]1CCCl (centres unmarked)
3. CCC[SH]1C(C)(C)C(=O)[N]2CC[N]3c4ccccc4[S][Tc]231=[O] (centres unmarked)
4. C#CC[SH]1C(C)(C)C(=O)[N]2CC[N]3c4ccccc4[S][Tc]231=[O] (centres unmarked)
5. CC1(C)C(=O)[N]2CC[N]3c4ccccc4[S][Tc]23(=[O])[SH]1CCO (centres unmarked)

Given back:
1. 0.05
2. 1.8
3. 1.83
4. 0.31
5. 0.93
